Recorded MIC values for a group of molecules are listed next.
- Test system: Cryptococcus neoformans
- PROTOCOL_DETAILS: Antifungal activity against Cryptococcus neoformans by microdilution test
- Type: functional
Reply with a number, then the unit it belongs to.

Record excerpt, results attached:
# MOLECULE, MIC
rows = [
    ("O=C(CCl)N1c2ccccc2Sc2ccccc21", "8 µg/mL"),
    ("CCC(C)n1ncn(-c2ccc(N3CCN(c4ccc(OCC5COC(Cn6cncn6)(c6ccc(Cl)cc6Cl)O5)cc4)CC3)cc2)c1=O (configuration not stated)", "0.25 µg/mL"),
    ("CC(CN1c2ccccc2Sc2ccccc21)N(C)C (configuration not stated)", "256 µg/mL"),
    ("CN(C/C=C/C#CC(C)(C)C)Cc1cccc2ccccc12", "0.25 µg/mL"),
    ("OC(Cn1cncn1)(Cn1cncn1)c1ccc(F)cc1F", "8 µg/mL"),
]

Exercise: Need MIC, item Nc1nc(=O)[nH]cc1F
Solution: 0.5 µg/mL

Exercise: Now the same for CN(C)S(=O)(=O)c1ccc2c(c1)N(CCCN1CCC(CCO)CC1)c1ccccc1S2
Solution: 256 µg/mL

###

- Test system: Pichia kudriavzevii
- PROTOCOL_DETAILS: Antifungal activity against Candida krusei by microdilution test
- Type: functional
// boundary case: MIC equal to 60 µg/mL maps to criterion not met; strictly smaller maps to criterion met

Exercise: Quick check: MIC of CC(CN1c2ccccc2Sc2ccccc21)N(C)C (stereo not drawn) under 60 µg/mL?
Solution: criterion not met

Exercise: Now the same for O=C(CCl)N1c2ccccc2Sc2ccccc21
Solution: criterion met

Exercise: Now the same for CN(C/C=C/C#CC(C)(C)C)Cc1cccc2ccccc12
Solution: criterion met

###

- PROTOCOL_DETAILS: Antifungal activity against Exophiala xenobiotica by microdilution test
- Format: functional
Calls of active or inactive are those of the source. The calls are words filed in the database; no cut-off is given here.
REPORTED_PROPERTY: Activity

Record excerpt, results attached:
# SMILES_STRUCTURE, EXPERIMENTAL_RESULT
rows = [
    ("CN(C)S(=O)(=O)c1ccc2c(c1)N(C(=O)CCl)c1ccccc1S2", "inactive"),
    ("CC(=O)N1c2ccccc2Sc2ccccc21", "inactive"),
    ("O=C(CCl)N(c1ccccc1)c1ccccc1", "inactive"),
    ("O=C(CCl)Nc1ccccc1Sc1ccccc1", "inactive"),
]

Exercise: Need Activity, item OCCC1CCNCC1
Solution: inactive

Exercise: Now the same for CN(C)S(=O)(=O)c1ccc2c(c1)Nc1ccccc1S2
Solution: inactive

Exercise: Now the same for ClCCCN1c2ccccc2Sc2ccccc21
Solution: inactive

Exercise: Now the same for CN(C)S(=O)(=O)c1ccc2c(c1)N(C(=O)CCCl)c1ccccc1S2
Solution: inactive

Exercise: Now the same for O=C(CCl)N1c2ccccc2Oc2ccccc21
Solution: inactive

Exercise: Now the same for O=C(CCl)n1c2ccccc2c2ccccc21
Solution: inactive

Exercise: Now the same for O=C(CCCl)N1c2ccccc2Sc2ccccc21
Solution: inactive

###

- Test system: Meyerozyma guilliermondii
- PROTOCOL_DETAILS: Antifungal activity against Candida guilliermondii by microdilution test
- Assay type: functional
REPORTED_PROPERTY: MIC (µg/mL)
Give the number; µg/mL is assumed, so skip it.

Exercise: Need MIC, item CCC(C)n1ncn(-c2ccc(N3CCN(c4ccc(OCC5COC(Cn6cncn6)(c6ccc(Cl)cc6Cl)O5)cc4)CC3)cc2)c1=O (stereo not drawn)
Solution: 0.5

Exercise: Now the same for O=C(CCl)N1c2ccccc2Sc2ccccc21
Solution: 32

Exercise: Now the same for CC(CN1c2ccccc2Sc2ccccc21)N(C)C (stereo not drawn)
Solution: 512

Exercise: Now the same for CN(C)S(=O)(=O)c1ccc2c(c1)N(CCCN1CCC(CCO)CC1)c1ccccc1S2
Solution: 256

Exercise: Now the same for CN(C/C=C/C#CC(C)(C)C)Cc1cccc2ccccc12
Solution: 0.5

Exercise: Now the same for C[C@@H]1[C@H](O)[C@@H](C)/C=C/C=C/C=C/C=C/C=C/C=C/C=C/[C@H](O[C@@H]2O[C@H](C)[C@@H](O)[C@H](N)[C@@H]2O)C[C@@H]2O[C@](O)(C[C@@H](O)C[C@@H](O)[C@H](O)CC[C@@H](O)C[C@@H](O)CC(=O)O[C@H]1C)C[C@H](O)[C@H]2C(=O)O
Solution: 1

Exercise: Now the same for Nc1nc(=O)[nH]cc1F
Solution: 1

Exercise: Now the same for OC(Cn1cncn1)(Cn1cncn1)c1ccc(F)cc1F
Solution: 4
